# test.target: influenza A virus minigenome (PB2, PB1, PA, NP proteins)
# Assay type: cell-based
# protocol.conditions: read-out: RNP_Hubei B
pIC50: −log10 of the molar value.
attribute.measured: pIC50

compound | test.target | value.observed
COCOc1ccc(-c2cc(C(N)=O)c(=O)[nH]c2C(F)(F)F)cc1 [Example 13] | influenza A virus minigenome (PB2, PB1, PA, NP proteins) | 4.30 to 4.60
CN1CCCC(COc2ccc(-c3cc(C(N)=O)c(=O)[nH]c3C(F)(F)F)cc2)C1 (centres unmarked) [Example 92] | influenza A virus minigenome (PB2, PB1, PA, NP proteins) | 4.30 to 4.60
CC(=O)N1CCC(COc2ccc(-c3cc(C(N)=O)c(=O)[nH]c3C(F)(F)F)cc2)CC1 [Example 55] | influenza A virus minigenome (PB2, PB1, PA, NP proteins) | 4.30 to 4.60
NC(=O)c1cc(-c2ccc(OCc3ccncc3)cc2)c(C(F)(F)F)[nH]c1=O [Example 70] | influenza A virus minigenome (PB2, PB1, PA, NP proteins) | 4.30 to 4.60
NC(=O)c1cc(-c2ccc(Oc3ccccc3)cc2)c(C(F)(F)F)[nH]c1=O [Example 6] | influenza A virus minigenome (PB2, PB1, PA, NP proteins) | 5.30 to 6.00

###

Below, each entry is listed with its recorded pIC50.
# test.target: influenza A virus minigenome (PB2, PB1, PA, NP proteins)
# Assay type: cell-based
# protocol.conditions: read-out: RNP_ Hubei B IC50
pIC50: −log10 of the molar value.
attribute.measured: pIC50

molecule | value.observed
CC(C)(C)OC(=O)N1C[C@@H](F)C[C@H]1COc1ccc(-c2cc(C(N)=O)c(=O)[nH]c2C(F)(F)F)cc1 | 5.00 to 5.30
COC1(C2COCC(COc3ccc(-c4cc(C(N)=O)c(=O)[nH]c4C(F)(F)F)cc3)O2)CC1 (single isomer, unassigned) | 5.00 to 5.30
CCC1(COc2ccc(-c3cc(C(N)=O)c(=O)[nH]c3C(F)(F)F)cc2)COC1 | 4.60 to 5.00
NC(=O)c1cc(-c2ccc(OCC3COC(C(F)F)CO3)cc2)c(C(F)(F)F)[nH]c1=O (single isomer, unassigned) [Example 344] | 5.00 to 5.30
C[C@]1(CS(C)(=O)=O)COC[C@@H](COc2ccc(-c3cc(C(N)=O)c(=O)[nH]c3C(F)(F)F)cc2)O1 | 5.00 to 5.30
NC(=O)c1cc(-c2ccc(OCC3COCCO3)c(F)c2)c(C(F)(F)F)[nH]c1=O (stereo not drawn) | 4.60 to 5.00
CC1(OC[C@@]2(C)COC[C@@H](COc3ccc(-c4cc(C(N)=O)c(=O)[nH]c4C(F)(F)F)cc3)O2)COC1 | 5.00 to 5.30
COCC1OC(COc2ccc(-c3cc(C(N)=O)c(=O)[nH]c3C(F)(F)F)cc2)COC1C (single isomer, unassigned) [Example 393] | 5.00 to 5.30
CC(C)n1cc2c(n1)COCC2COc1ccc(-c2cc(C(N)=O)c(=O)[nH]c2C(F)(F)F)cc1 (single isomer, unassigned) [Example 296] | 5.00 to 5.30

###

# test.target: influenza A virus minigenome (PB2, PB1, PA, NP proteins) (UniProt P04665)
# Sequence (P04665 whole entry): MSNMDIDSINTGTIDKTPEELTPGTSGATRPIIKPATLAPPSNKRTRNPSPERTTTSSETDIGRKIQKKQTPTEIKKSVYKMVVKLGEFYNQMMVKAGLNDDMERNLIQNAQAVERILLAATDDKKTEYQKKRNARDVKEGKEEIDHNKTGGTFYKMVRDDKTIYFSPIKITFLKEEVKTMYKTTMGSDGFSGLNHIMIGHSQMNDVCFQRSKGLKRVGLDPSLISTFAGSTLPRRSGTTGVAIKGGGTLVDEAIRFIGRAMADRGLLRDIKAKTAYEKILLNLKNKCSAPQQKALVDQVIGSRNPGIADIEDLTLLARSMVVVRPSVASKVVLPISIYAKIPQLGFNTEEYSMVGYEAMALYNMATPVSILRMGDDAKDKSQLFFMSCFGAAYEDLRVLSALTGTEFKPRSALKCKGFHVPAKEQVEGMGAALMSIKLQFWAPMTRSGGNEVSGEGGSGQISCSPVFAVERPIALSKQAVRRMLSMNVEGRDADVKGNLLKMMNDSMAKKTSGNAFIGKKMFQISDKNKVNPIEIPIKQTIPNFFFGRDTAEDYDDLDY
# Format: cell-based
# protocol.conditions: read-out: RNP_Hubei B
pIC50: −log10 of the molar value.

molecule | test.target | pIC50
CC1COCCN1Cc1ccc(-c2cc(C(N)=O)c(=O)[nH]c2C(F)(F)F)cc1 (stereo not shown) [Example 27] | influenza A virus minigenome (PB2, PB1, PA, NP proteins) (UniProt P04665) | 4.60 to 5.00
NC(=O)c1cc(-c2ccc(OCC3CN(CC4CC4)CCO3)cc2)c(C(F)(F)F)[nH]c1=O (stereo not shown) [Example 194] | influenza A virus minigenome (PB2, PB1, PA, NP proteins) (UniProt P04665) | 4.30 to 4.60
NC(=O)c1cc(-c2ccc(OCC3CN(CC(F)F)CCO3)cc2)c(C(F)(F)F)[nH]c1=O (stereo not shown) [Example 192] | influenza A virus minigenome (PB2, PB1, PA, NP proteins) (UniProt P04665) | 4.30 to 4.60
CO[C@@H]1CCN(Cc2ccc(-c3cc(C(N)=O)c(=O)[nH]c3C(F)(F)F)cc2)C1 [Example 41] | influenza A virus minigenome (PB2, PB1, PA, NP proteins) (UniProt P04665) | 4.30 to 4.60

###

# test.target: UniProt P04665
# Type: cell-based
# protocol.conditions: read-out: RNP_Hubei B
pIC50: −log10 of the molar value.

compound | test.target | pIC50
C[C@@H]1CN(Cc2ccc(-c3cc(C(N)=O)c(=O)[nH]c3C(F)(F)F)cc2)C[C@H](C)O1 [Example 35] | UniProt P04665 | 4.30 to 4.60
NC(=O)c1cc(-c2ccc(OCc3ccccn3)cc2)c(C(F)(F)F)[nH]c1=O [Example 73] | UniProt P04665 | 4.30 to 4.60
NC(=O)c1cc(-c2ccc(CN3CCOCC3c3cccnc3)cc2)c(C(F)(F)F)[nH]c1=O (centres unmarked) [Example 32] | UniProt P04665 | 4.30 to 4.60
COCc1ccc(-c2cc(C(N)=O)c(=O)[nH]c2C(F)(F)F)cc1 [Example 15] | UniProt P04665 | 4.30 to 4.60
CC(O)c1ccc(-c2cc(C(N)=O)c(=O)[nH]c2C(F)(F)F)cc1 (centres unmarked) [Example 37] | UniProt P04665 | 4.30 to 4.60
CC(c1ccc(-c2cc(C(N)=O)c(=O)[nH]c2C(F)(F)F)cc1)N1CCOCC1 (centres unmarked) [Example 33] | UniProt P04665 | 5.30 to 6.00
NC(=O)c1cc(-c2ccc(OCc3cncs3)cc2)c(C(F)(F)F)[nH]c1=O [Example 134] | UniProt P04665 | 4.30 to 4.60
CCOCC1COCC(COc2ccc(-c3cc(C(N)=O)c(=O)[nH]c3C(F)(F)F)cc2)O1 (single isomer, unassigned) [Example 360] | UniProt P04665 | 5.00 to 5.30

###

# test.target: influenza A virus minigenome (PB2, PB1, PA, NP proteins) (UniProt P04665)
# Type: cell-based
# protocol.conditions: read-out: RNP_ Hubei B IC50
pIC50: −log10 of the molar value.
Below, each entry is listed with its recorded pIC50.
attribute.measured: pIC50

compound | attribute.measured | value.observed
NC(=O)c1cc(-c2ccc(OCC3COCC(COC4CC(F)(F)C4)O3)cc2)c(C(F)(F)F)[nH]c1=O (single isomer, unassigned) [Example 367] | pIC50 | 5.00 to 5.30
NC(=O)c1cc(-c2ccc(OCC3C[C@@H]4CC[C@H]3O4)cc2)c(C(F)(F)F)[nH]c1=O (single isomer, unassigned) [Example 313] | pIC50 | 4.60 to 5.00
CC1CN(C(=O)OC(C)(C)C)CC1COc1ccc(-c2cc(C(N)=O)c(=O)[nH]c2C(F)(F)F)cc1 (centres unmarked) | pIC50 | 4.60 to 5.00
COC[C@H]1COC[C@@H](COc2ccc(-c3cc(C(N)=O)c(=O)[nH]c3C(F)(F)F)cc2)O1 | pIC50 | 5.00 to 5.30
NC(=O)c1cc(-c2ccc(OCC3COCC(Cn4cccn4)O3)cc2)c(C(F)(F)F)[nH]c1=O (single isomer, unassigned) [Example 376] | pIC50 | 5.00 to 5.30
NC(=O)c1cc(-c2ccc(OCc3cc(C4CC4)on3)cc2)c(C(F)(F)F)[nH]c1=O | pIC50 | 4.30 to 4.60
NC(=O)c1cc(-c2ccc(OCC3COCCN3C3CC3)cc2)c(C(F)(F)F)[nH]c1=O (centres unmarked) | pIC50 | 5.00 to 5.30
CC(C)n1ncc2c1COCC2COc1ccc(-c2cc(C(N)=O)c(=O)[nH]c2C(F)(F)F)cc1 (single isomer, unassigned) [Example 294] | pIC50 | 5.00 to 5.30
C[C@]1(CO)COC[C@@H](COc2ccc(-c3cc(C(N)=O)c(=O)[nH]c3C(F)(F)F)cc2)O1 | pIC50 | 5.00 to 5.30
CN1[C@H](COc2ccc(-c3cc(C(N)=O)c(=O)[nH]c3C(F)(F)F)cc2)COC[C@@H]1C1CC1 | pIC50 | 5.00 to 5.30
NC(=O)c1cc(-c2ccc(OCC3CCCO3)cc2)c(C(F)(F)F)[nH]c1=O (centres unmarked) | pIC50 | 4.60 to 5.00
NC(=O)c1cc(-c2ccc(OCC3COCC(Cn4cccc4)O3)cc2)c(C(F)(F)F)[nH]c1=O (single isomer, unassigned) [Example 375] | pIC50 | 5.00 to 5.30
NC(=O)c1cc(-c2ccc(OCC3CCO3)cc2)c(C(F)(F)F)[nH]c1=O (centres unmarked) | pIC50 | 4.30 to 4.60
NC(=O)c1cc(-c2ccc(OCC3COCC(Cn4cccc4)O3)cc2)c(C(F)(F)F)[nH]c1=O (single isomer, unassigned) [Example 374] | pIC50 | 5.00 to 5.30
